Target: 5-hydroxytryptamine receptor 1A (Homo sapiens, UniProt P08908)
Sequence (P08908 whole entry): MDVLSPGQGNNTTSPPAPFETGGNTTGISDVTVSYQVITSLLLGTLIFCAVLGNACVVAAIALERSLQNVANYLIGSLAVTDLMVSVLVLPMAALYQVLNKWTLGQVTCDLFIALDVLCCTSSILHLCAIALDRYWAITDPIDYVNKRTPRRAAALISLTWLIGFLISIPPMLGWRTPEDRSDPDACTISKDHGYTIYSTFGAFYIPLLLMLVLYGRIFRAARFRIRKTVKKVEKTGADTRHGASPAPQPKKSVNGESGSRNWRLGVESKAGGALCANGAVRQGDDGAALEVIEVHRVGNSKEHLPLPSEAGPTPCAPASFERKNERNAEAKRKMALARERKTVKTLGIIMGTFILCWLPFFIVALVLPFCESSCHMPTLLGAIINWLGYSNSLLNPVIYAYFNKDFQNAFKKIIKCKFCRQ
Experiment: Displacement of [3H][…] from 5-HT1A receptor in human HEK293 cells measured after 60 mins by scintillation counting method
Type: cell-based
Settings: read-out: Ki
Measured Endpoint: Ki (nM)
Report only the number, with the unit nM understood.

Provide Ki value for the following molecule: O=C(c1ccc(Cl)c(Cl)c1)N1CCC(CNCCCc2c[nH]c3ccc(F)cc23)CC1
0.097

Provide Ki value for the following molecule: Fc1ccc(OCCN2CCC(c3c[nH]c4ccc(F)cc34)CC2)c(-c2ccccc2)c1
0.2

Provide Ki value for the following molecule: O=C(c1ccc(F)c(Cl)c1)N1CCC(CNCCCc2c[nH]c3ccc(F)cc23)CC1
0.069

Provide Ki value for the following molecule: Fc1ccc(N2CCN(CCCc3c[nH]c4ccc(F)cc34)CC2)c(-c2ccccc2)c1
12

* * *

Assay: in vitro
Settings: human, liver microsomes
Measured Endpoint: half-life (min)
Report only the number, with the unit min understood.

Provide half-life value for the following compound: O=C(c1cccc(Cl)c1)N1CCC(CNCCCc2c[nH]c3ccc(F)cc23)CC1
9.07

Provide half-life value for the following compound: O=C(c1ccc(Cl)c(Cl)c1)N1CCC(CNCCCc2c[nH]c3ccc(F)cc23)CC1
30.5

Provide half-life value for the following compound: O=C(c1ccc(F)c(Cl)c1)N1CCC(CNCCCc2c[nH]c3ccc(F)cc23)CC1
26.8

Provide half-life value for the following compound: O=C(c1ccc(F)cc1)N1CCC(CNCCCc2c[nH]c3ccc(F)cc23)CC1
16.4

Provide half-life value for the following compound: Cc1cc(C(=O)N2CCC(CNCCCc3c[nH]c4ccc(F)cc34)CC2)ccc1F
3.86

Provide half-life value for the following compound: O=C(c1ccc(Cl)cc1)N1CCC(CNCCCc2c[nH]c3ccc(F)cc23)CC1
19.5

Provide half-life value for the following compound: N#Cc1ccc2[nH]cc(CCCCN3CCN(c4ccc5oc(C(N)=O)cc5c4)CC3)c2c1
26.9

Provide half-life value for the following compound: NC(=O)c1cccc(C(=O)N2CCC(CNCCCc3c[nH]c4ccc(F)cc34)CC2)c1
154

Provide half-life value for the following compound: Cc1ccc(C(=O)N2CCC(CNCCCc3c[nH]c4ccc(F)cc34)CC2)cc1
4.48

* * *

Assay: in vitro
Conditions: human, liver microsomes
Description: Metabolic stability in human liver microsomes assessed as clearance
Measured Endpoint: microsomal CLint (µL/min/mg)
Report only the number, with the unit µL/min/mg understood.

Provide microsomal CLint value for the following compound: O=C(c1cccc(Cl)c1)N1CCC(CNCCCc2c[nH]c3ccc(F)cc23)CC1
153

Provide microsomal CLint value for the following compound: O=C(c1ccc(Cl)c(Cl)c1)N1CCC(CNCCCc2c[nH]c3ccc(F)cc23)CC1
45.4

Provide microsomal CLint value for the following compound: O=C(c1ccc(F)c(F)c1)N1CCC(CNCCCc2c[nH]c3ccc(F)cc23)CC1
71.2

Provide microsomal CLint value for the following compound: O=C(c1ccc(Cl)cc1)N1CCC(CNCCCc2c[nH]c3ccc(F)cc23)CC1
70.9

Provide microsomal CLint value for the following compound: NC(=O)c1ccc(C(=O)N2CCC(CNCCCc3c[nH]c4ccc(F)cc34)CC2)cc1
4.2

* * *

Target: 5-hydroxytryptamine receptor 1A (Homo sapiens)
Experiment: Displacement of [3H][…] from 5-HT1A receptor in human HEK293 cells at 1 uM measured after 60 mins by scintillation counting method relative to control
Format: cell-based
Measured Endpoint: inhibition (%)
Report only the number, with the unit % understood.

Provide inhibition value for the following compound: CCCN(CCCc1c[nH]c2ccc(F)cc12)CC1CCN(C(=O)c2ccc(F)c(Cl)c2)CC1
86

Provide inhibition value for the following compound: NC(=O)c1cccc(C(=O)N2CCC(CNCCCc3c[nH]c4ccc(F)cc34)CC2)c1
98

Provide inhibition value for the following compound: O=C(c1ccc(F)c(Cl)c1)N1CCC(NCCCc2c[nH]c3ccc(F)cc23)CC1
96

Provide inhibition value for the following compound: O=C(c1ccc(F)c(Cl)c1)N1CCC(CNCCCCCc2c[nH]c3ccc(F)cc23)CC1
92

Provide inhibition value for the following compound: NC(=O)c1ccccc1C(=O)N1CCC(CNCCCc2c[nH]c3ccc(F)cc23)CC1
98

Provide inhibition value for the following compound: O=C(c1ccc(F)c(Cl)c1)N1CCC(CNCCc2c[nH]c3ccc(F)cc23)CC1
93

Provide inhibition value for the following compound: O=C(c1ccc(F)c(F)c1)N1CCC(CNCCCc2c[nH]c3ccc(F)cc23)CC1
99

Provide inhibition value for the following compound: O=C(c1ccc(Cl)cc1)N1CCC(CNCCCc2c[nH]c3ccc(F)cc23)CC1
100

Provide inhibition value for the following compound: O=C(c1ccc(F)cc1)N1CCC(CNCCCc2c[nH]c3ccc(F)cc23)CC1
100

* * *

Target: 5-hydroxytryptamine receptor 1A (Homo sapiens, UniProt P08908)
Experiment: Displacement of [3H][…] from 5-HT1A receptor in human HEK293 cells measured after 60 mins by scintillation counting method
Type: cell-based
Measured Endpoint: pKi
The scale used: pKi is minus the common logarithm of the concentration in molar units.

Provide pKi value for the following molecule: O=C(c1ccc(F)c(Cl)c1)N1CCC(CNCc2cccc(-n3cccn3)n2)CC1
8.81

* * *

Assay: in vitro
Conditions: mouse, liver microsomes
Description: Metabolic stability in mouse liver microsomes assessed as clearance
Measured Endpoint: microsomal CLint (µL/min/mg)
Report only the number, with the unit µL/min/mg understood.

Provide microsomal CLint value for the following compound: NC(=O)c1cccc(C(=O)N2CCC(CNCCCc3c[nH]c4ccc(F)cc34)CC2)c1
5

Provide microsomal CLint value for the following compound: NC(=O)c1ccccc1C(=O)N1CCC(CNCCCc2c[nH]c3ccc(F)cc23)CC1
105

Provide microsomal CLint value for the following compound: O=C(c1cccc(Cl)c1)N1CCC(CNCCCc2c[nH]c3ccc(F)cc23)CC1
49.8

Provide microsomal CLint value for the following compound: O=C(c1ccc(Cl)c(Cl)c1)N1CCC(CNCCCc2c[nH]c3ccc(F)cc23)CC1
44.9

Provide microsomal CLint value for the following compound: N#Cc1ccc2[nH]cc(CCCCN3CCN(c4ccc5oc(C(N)=O)cc5c4)CC3)c2c1
60.6

Provide microsomal CLint value for the following compound: O=C(c1ccc(F)c(Cl)c1)N1CCC(CNCCCCc2c[nH]c3ccc(F)cc23)CC1
30.8

Provide microsomal CLint value for the following compound: NC(=O)c1ccc(C(=O)N2CCC(CNCCCc3c[nH]c4ccc(F)cc34)CC2)cc1
13.6

Provide microsomal CLint value for the following compound: O=C(c1ccc(F)c(Cl)c1)N1CCC(CNCCCc2c[nH]c3ccc(F)cc23)CC1
22.5

* * *

Experiment: Binding affinity to 5-HT6 receptor (unknown origin) assessed as inhibition constant
Parameters: species or system Homo sapiens
Measured Endpoint: pKi
The scale used: pKi is minus the common logarithm of the concentration in molar units.

Provide pKi value for the following compound: O=C(c1ccc(F)c(Cl)c1)N1CCC(CNCCCc2c[nH]c3ccc(F)cc23)CC1
6.82

* * *

Test: in vitro
Details: human, liver microsomes
Field: half-life. Provide a value for each of the molecules that follow.
Could you write the number and then its unit?

Provide half-life value for the following molecule: NC(=O)c1ccc(C(=O)N2CCC(CNCCCc3c[nH]c4ccc(F)cc34)CC2)cc1
330 min

Provide half-life value for the following molecule: O=C(c1ccc(F)c(Cl)c1)N1CCC(CNCCCCc2c[nH]c3ccc(F)cc23)CC1
11.7 min

Provide half-life value for the following molecule: O=C(c1ccc(F)c(F)c1)N1CCC(CNCCCc2c[nH]c3ccc(F)cc23)CC1
19.5 min

Provide half-life value for the following molecule: N#Cc1ccc2[nH]cc(CCCNCC3CCN(C(=O)c4ccc(F)c(Cl)c4)CC3)c2c1
12.2 min

Provide half-life value for the following molecule: NC(=O)c1ccccc1C(=O)N1CCC(CNCCCc2c[nH]c3ccc(F)cc23)CC1
10 min

* * *

Molecular target: Sodium-dependent serotonin transporter (Rattus norvegicus)
Sequence (P31652 whole entry): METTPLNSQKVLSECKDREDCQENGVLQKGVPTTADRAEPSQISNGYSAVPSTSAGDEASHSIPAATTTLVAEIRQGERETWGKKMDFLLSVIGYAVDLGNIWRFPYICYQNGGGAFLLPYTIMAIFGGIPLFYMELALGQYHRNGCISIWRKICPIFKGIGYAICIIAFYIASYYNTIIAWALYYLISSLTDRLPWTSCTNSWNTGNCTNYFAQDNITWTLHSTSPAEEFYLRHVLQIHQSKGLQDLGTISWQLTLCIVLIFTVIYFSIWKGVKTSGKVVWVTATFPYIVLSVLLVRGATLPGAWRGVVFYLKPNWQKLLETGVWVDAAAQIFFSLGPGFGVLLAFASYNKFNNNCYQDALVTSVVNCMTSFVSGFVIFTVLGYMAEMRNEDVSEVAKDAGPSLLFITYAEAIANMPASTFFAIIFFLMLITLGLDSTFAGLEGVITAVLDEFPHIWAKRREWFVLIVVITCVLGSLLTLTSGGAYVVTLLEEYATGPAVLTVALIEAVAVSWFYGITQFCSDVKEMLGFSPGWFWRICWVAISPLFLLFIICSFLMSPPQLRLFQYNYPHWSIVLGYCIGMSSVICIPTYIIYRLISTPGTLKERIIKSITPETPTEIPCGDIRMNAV
Experiment: Inhibition of serotonin transporter in rat brain tissue assessed as inhibition of [3H]-5-hydroxytryptamine reuptake
Measured Endpoint: IC50 (nM)
Report only the number, with the unit nM understood.

Provide IC50 value for the following compound: Fc1ccc(OCCN2CCC(c3c[nH]c4ccc(F)cc34)CC2)c(-c2ccccc2)c1
0.5

Provide IC50 value for the following compound: O=C(c1ccc(Cl)c(Cl)c1)N1CCC(CNCCCc2c[nH]c3ccc(F)cc23)CC1
17

Provide IC50 value for the following compound: O=C(c1ccc(F)c(Cl)c1)N1CCC(CNCCCc2c[nH]c3ccc(F)cc23)CC1
8.2

Provide IC50 value for the following compound: Fc1ccc(N2CCN(CCCc3c[nH]c4ccc(F)cc34)CC2)c(-c2ccccc2)c1
177
